// data source = PubChem BioAssay (NCI)

# Tested on: COLO 205 colon
# protocolNotes: NCI-60 one-dose screen, 48 h
# experimentalSetup: 10 µM unless noted
About 83,000 compounds went through this panel and 20% of them were active in at least one assay; those are over-represented in the sample as a whole. The source made the active and inactive calls. The calls were made as follows: active = growth percent below 10; inactive = the rest.
Could you please pick one outcome from this set? active, inactive

Prompt: Look up the recorded call for `Cc1ccc(Nc2nnc(-c3c[nH]c4ccccc34)o2)c(C)c1` in this test.
Completion: active

Prompt: Now try `Cc1ccccc1Nc1nnc(-c2c[nH]c3ccccc23)o1` .
Completion: active

Prompt: Now try `CC(=O)C[n+]1cccc2c3ccccc3ccc21` .
Completion: inactive

Prompt: Now try COc1cc(C2C(C(=O)OCc3ccccc3)=C(C)Nc3nc4ccccc4n32)cc(OC)c1OC (configuration not stated) .
Completion: inactive

Prompt: Now try `C[C@@H]1CN(c2ccc3ncc(C#Cc4cncc(C(=O)Nc5ccc(CN6CCN(C)CC6)c(C(F)(F)F)c5)c4)n3n2)C[C@@H](C)O1` .
Completion: active

Prompt: Now try `CC[C@]12C=CCN3CC[C@@]4(c5ccc(OC)cc5N(C)[C@H]4[C@@](O)(C(=O)OC)[C@@H]1OC(=O)CCCC[P+](c1ccc(F)cc1)(c1ccc(F)cc1)c1ccc(F)cc1)[C@@H]32` .
Completion: active

Prompt: Now try `O=C1/C(=C/c2cccc3c2OCO3)Cc2c(F)cc(Br)cc21` .
Completion: inactive

Prompt: Now try `CC(=O)c1ccc2c(N)c(C(=O)Nc3ccc(C(F)(F)F)cc3)sc2n1` .
Completion: inactive

Prompt: Now try `Cc1ccc(N=Nc2c(N)nn3c(-c4cc5cc(Br)ccc5oc4=O)ccnc23)cc1` .
Completion: inactive

Prompt: Now try `c1n[nH]cc1-c1nc2ccc3[nH]ncc3c2c2c1CC1(CCOCC1)CC2` .
Completion: inactive

Prompt: Now try CC1=C(C(=O)Nc2ccccc2)C(c2cccc3ccccc23)n2c(nc3ccccc32)N1 (configuration not stated) .
Completion: inactive

Prompt: Now try `O=C(N/N=C/c1ccc(Br)o1)c1[nH]c2ccc(Br)cc2c1-c1ccccc1` .
Completion: active

Prompt: Now try COc1ccc(SC2c3cc(OC)ccc3Oc3nc(N)c(C#N)c(N)c32)cc1 (configuration not stated) .
Completion: inactive

Prompt: Now try `COc1ccc2ccccc2c1/C=C1\SC(=Nc2ccc(O)cc2)NC1=O` .
Completion: active

Prompt: Now try CCc1ccc(SC2c3cc(OC)ccc3Oc3nc(N)c(C#N)c(N)c32)cc1 (configuration not stated) .
Completion: active

Prompt: Now try N#CC1=C(c2cccs2)Nc2c(c(-c3ccccc3)nn2-c2ccccc2)C12C(=O)Nc1ccccc12 (configuration not stated) .
Completion: inactive

Prompt: Now try `COc1ccc(-n2c(NC(=O)N3CCN(C)CC3)c(C#N)c3ccccc32)cc1` .
Completion: inactive

Prompt: Now try `COC(=O)CSC1=C(C)C(=O)C(OC)=C(OC)C1=O` .
Completion: inactive

Prompt: Now try `C=CCSc1nnc(-c2ccc(-c3nc4ccc(Cl)cc4[nH]3)cc2)o1` .
Completion: inactive

Prompt: Now try `O=C1Nc2ccc(F)cc2/C1=C/C(=O)c1cc2ccccc2oc1=O` .
Completion: inactive

Prompt: Now try `Cc1[nH]nc2ccc3nc(-c4cn[nH]c4C(F)(F)F)c4c(c3c12)CCCC4` .
Completion: active

Prompt: Now try `CCCCCCCCc1cccc(CC(=O)Nc2ccc(C)cc2C(=O)O)c1` .
Completion: inactive

Prompt: Now try `C#CCN(C)CCCOc1ccc(N(CC)C(=O)c2cc(C(C)C)c(O)cc2O)cc1Cl` .
Completion: active

Prompt: Now try `Cc1nn(-c2ccccc2)c2nc(C)n(C(=O)N/N=C/c3ccccc3)c(=O)c12` .
Completion: inactive

Prompt: Now try `CC(C)(C)C(=O)c1c2c(c3ccc4c5ccccc5ccc4n13)C(=O)c1ccccc1C2=O` .
Completion: inactive

Prompt: Now try `COc1ccccc1NC(=O)c1ccc(NC(=O)CCl)s1` .
Completion: active

Prompt: Now try `CCCSc1nnc(-c2sc3nc4ccccc4n3c2C)o1` .
Completion: inactive

Prompt: Now try `O=C1Nc2cc(-c3ccc(NS(=O)(=O)c4ccc(C(F)(F)F)cc4)cc3)ccc2/C1=C/c1ccc[nH]1` .
Completion: inactive

Prompt: Now try `C[C@H](NC(=O)c1ccc2c(-c3ccc(C(F)(F)F)cc3)cccc2c1)c1ccccn1` .
Completion: inactive

Prompt: Now try `CS(=O)(=O)Nc1cncc(-c2ccc3ncnc(NCc4ccccc4)c3c2)c1` .
Completion: inactive

Prompt: Now try `O=C(CSc1nnc(-c2ccc(-c3nc4ccccc4[nH]3)cc2)o1)Nc1ccc(Br)cc1` .
Completion: inactive

Prompt: Now try `CCc1ccccc1-c1nc(CN[C@@H]2C[C@@H]3C[C@H]([C@H]2C)C3(C)C)c(C)o1` .
Completion: active
